MEASURED_TARGET: T1, Murine CTGF (Mus musculus, UniProt P29268)
T1 construct: purchased Abbexa
T1 sequence (P29268 26-348): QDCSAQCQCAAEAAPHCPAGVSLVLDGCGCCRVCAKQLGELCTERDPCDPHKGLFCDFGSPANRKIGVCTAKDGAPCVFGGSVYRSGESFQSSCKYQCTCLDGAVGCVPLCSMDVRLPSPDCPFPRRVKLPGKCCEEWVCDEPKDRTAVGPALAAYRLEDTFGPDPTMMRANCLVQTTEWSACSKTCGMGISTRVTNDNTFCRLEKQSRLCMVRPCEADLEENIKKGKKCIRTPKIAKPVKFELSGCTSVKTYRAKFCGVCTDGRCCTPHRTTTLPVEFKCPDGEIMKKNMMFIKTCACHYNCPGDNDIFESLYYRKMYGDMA
PROTOCOL_SUMMARY: SPR binding kinetics and affinity, murine CTGF
CONDITION_INFO: 25° C., 1:1 binding model
ENDPOINT_LABEL: Murine CTGF kon (M⁻¹ s⁻¹)
# output: bare number, implied unit M⁻¹ s⁻¹

Query :: For SEQ ID NO: 32: optimized CTGF-binding hNGAL lipocalin mutein (protein, lipocalin mutein) QDSTSDLIPAPPLSKVPLQQNFQDNQFQGKWYVVGWAGNVKLREDKQPFKMSATIYELKEDKSYDVTEVVFEQKKCHYIIKTFVPGSQPGEFTLSPISSSPGLVSHLVRVVSTNYNQHAMVFFKKVHQNREFFWITLYGRTKELTSELKENFIRFSKSLGLPENHIVFPVPIDQCIDG , what is its reported Murine CTGF kon?
Result :: 133000
